The following molecules are listed with their measured EC50 values.
System: HCV replicon Luc Neo ET
Experiment: HCV replication inhibition assay (replicon assay, luciferase reporter)
Type: cell-based
Conditions: Hepatitis C virus; Huh-7 cell lines containing HCV replicon Luc Neo ET; 72 hours with compound; 1 % DMSO; firefly luciferase reporter; concentration that produces 50 % of replication inhibition; read-out: EC50 Replicon LucneoET

Illustrative cases are given below, each with its answer.
Input line: Determine its reported EC50: COc1ccc(CCCN2C(=S)N(c3ccc(F)cc3)C(=O)C2CC(=O)Nc2ccc(OC)cn2)cc1 (stereo not shown) [Example 92]
Output line: < 0.5 µM

Input line: Determine its reported EC50: COCCN(C)c1ccc(NC(=O)CC2C(=O)N(c3ccc(F)cc3)C(=O)N2CCc2ccc(OC)cc2)cc1 (stereo not shown) [Example 43]
Output line: < 5 µM

Further cases:
Input line: Determine its reported EC50: COc1ccc(CCN2C(=O)N(c3ccc(F)cc3)C(=O)C2CC(=O)Nc2ccc(N(C)C)cc2)cc1 (stereo not shown) [Example 42]
Output line: < 5 µM

Input line: Determine its reported EC50: COc1ncc(NC(=O)CC2C(=O)N(c3ccc(F)cc3)C(=O)N2CCc2ccc(N(C)C)cc2)cn1 (stereo not shown) [Example 78]
Output line: < 30 µM

Input line: Determine its reported EC50: COc1ccc(CCN2C(=S)N(c3ccccc3)C(=O)C2CC(=O)Nc2ccc(C)nn2)cc1 (stereo not shown) [Example 68]
Output line: < 30 µM

Input line: Determine its reported EC50: COc1ccc(CCN2C(=S)N(c3ccc(F)cc3)C(=O)C2CC(=O)Oc2ccc(OC)cc2)cc1 (stereo not shown) [Example 86]
Output line: < 30 µM

Input line: Determine its reported EC50: COc1ccc(CCN2C(=S)N(c3ccc(F)cc3)C(=O)C2CC(=O)Nc2ccc(N3CCCC3=O)cc2)cc1 (stereo not shown) [Example 87]
Output line: < 5 µM
